We begin with IC50 values for Hepatocyte growth factor receptor (Homo sapiens), as collected from the published literature.

Record excerpt, results attached:
COc1cc2c(Oc3ccc(NC(=O)c4cc5ncn(C)c5n(-c5ccc(F)cc5)c4=O)cc3F)ccnc2cc1OCCCN1CCOCC1
< 10 nM
Nc1ncc(-c2cnn(C3CCNCC3)c2)cc1-c1nc2c(C(F)(F)F)ccc(Cl)c2s1
100 to 1000 nM

Input: Read the entry CCOC(=O)Nc1cccc(Cn2nc(-c3cccc(CC(=O)NCCCCO)c3)ccc2=O)c1 and write its reported IC50.
Output: 10 to 1000 nM

Input: Look up and report measured IC50 for this entry: C[C@@H]1CN(C(=O)c2cccc(-c3cnc(N)c(-c4nc5ccccc5s4)c3)c2)C[C@H](C)N1
Output: 100 to 1000 nM

====

// cross-study collection: IC50 for Hepatocyte growth factor receptor (Homo sapiens, UniProt P08581)

Here's what some known entries look like.
Cn1ncc2cc(C(=O)Nc3ccc(Oc4ccnc(N)c4)c(F)c3)c(=O)n(-c3ccc(F)cc3)c21
100 to 1000 nM
CC(Oc1cc(-c2ccnn2C)cnc1N)c1cc(F)cc2scnc12 (stereo not shown)
> 15900 nM
Nc1ncc(-c2cccc(OCC(=O)O)c2)cc1-c1nc2ccccc2s1
1000 to 20000 nM

Input: Enter measured IC50, system Hepatocyte growth factor receptor (Homo sapiens, UniProt P08581), for the molecule shown: Cn1cc(-c2cnc3[nH]cc(Sc4nnc5ccc(-c6cnn(C)c6)nn45)c3c2)cn1
Output: < 100 nM

====

// molecules with reported IC50 on Hepatocyte growth factor receptor (Homo sapiens, UniProt P08581), multi-publication

Known IC50 results, listed for orientation:
Cc1ccc2nnc(Sc3cc4cccnc4cc3F)n2n1
0.1 to 1 µM
Cn1cc(-c2cnc3ccc(Cc4nnc5sc([C@@H](N)CC6CCCCC6)nn45)cc3c2)cn1
0.1 to 1 µM
Cc1n[nH]cc1-c1cnc(N)c(OC(C)c2cc(F)ccc2-n2cccn2)c1 (stereo not drawn)
2.85 µM
CCOC(=O)Nc1cccc(Cn2nc(-c3ccc(CC(=O)NCCN)cc3)ccc2=O)c1
0.01 to 1 µM

Input: Assign IC50 to the following record: CC(c1ccc2nc(NC(=O)C3CC3)cn2n1)c1nnc2ccc(-c3cn[nH]c3)cn12 (stereo not drawn)
Output: < 0.03 µM

Input: Read off the recorded IC50 for Cn1cc(-c2cnc3ccc(Cc4nnc5nccnn45)cc3c2)cn1
Output: < 0.1 µM

Input: Quote IC50 reported for COc1cc2nccc(Oc3c(F)cc(NC(=O)c4cnccc4OC)cc3F)c2cc1OC[C@H](C)O please.
Output: ≤ 0.1 µM

Input: Look up IC50 of CN(C)c1ccc2nnc(Cc3ccc4ncc(-c5cnn(C)c5)cc4c3)n2n1 and report it.
Output: < 0.1 µM

Input: Provide measured IC50 value, entry: CC(Oc1nc(-c2cn(C)cn2)cnc1N)c1cc(F)ccc1Cl (stereo not drawn)
Output: > 20 µM

Input: Give reported IC50 value for O=C(c1cnc2c(c1)N(Cc1cc(Cl)ccc1Cl)CCN2)N1CCN(c2ccc(Cl)c(Cl)c2)CC1
Output: 10 to 100 µM

Input: For the molecule CCOC(=O)c1ccc(-c2cnc3c(c2)N(Cc2ccccc2)CCN3)cc1 , report IC50.
Output: > 100 µM

Input: Please give measured IC50 of the following entry: Nc1ncc(-c2cnn([C@@H]3CN[C@H](C(=O)N4CCCCC4)C3)c2)cc1-c1nc2ccccc2s1
Output: ≤ 0.1 µM

Input: Complete the entry with IC50 for CS(=O)(=O)c1ccc(-c2cnc3c(c2)N(Cc2ccccc2)C(=O)CN3)cc1
Output: > 100 µM

Input: Please look at this molecule and report its IC50: Cn1cc(-c2cc(Oc3ccc(NC(=O)Nc4cnc(C(C)(C)C)nc4N4CCOCC4)c(F)c3)ccn2)cn1
Output: < 100 µM

Input: Give a short answer stating reported IC50 for Clc1ccc(Cl)c(CN2CCNc3ncc(I)cc32)c1 .
Output: > 100 µM

Input: Given CNC(=O)c1ccc(-c2ccc3nnc(C(F)(F)c4ccc5nc(NC(=O)C6CC6)cn5n4)n3c2)cc1F , respond with its IC50.
Output: < 0.03 µM

====

From various publications: pIC50 for Hepatocyte growth factor receptor (Homo sapiens, UniProt P08581).
pIC50: −log10 of the molar value.

Cn1ncc2ccc(-c3n[nH]c4c3Cc3sc(-c5cc(C(=O)N6CCOCC6)ccn5)cc3-4)cc21
< 6.00
COc1cc2c(Oc3c(F)cc(NC(=O)c4cnccc4OC)cc3F)ccnc2cc1OC(F)(F)F
≥ 7.00
CNCCOc1ccc2c(Oc3c(F)cc(NC(=O)c4cnccc4OC4CC4)c(F)c3F)ccnc2c1
≥ 7.00
COc1cccc2sc(-c3cc(-c4cnn(C5CCNCC5)c4)cnc3N)nc12
6.00 to 7.00

Input: Tell me pIC50 reported for Cn1cc(-c2ccc3nnc(Sc4cc5scnc5cc4F)n3n2)cn1
Output: > 7.00

Input: Tell me pIC50 reported for O=C(c1cnc2c(c1)N(Cc1cc(Cl)ccc1Cl)CCN2)N1CCN(C(c2ccccc2)c2ccccc2)CC1
Output: 4.00 to 5.00

Input: Identify the reported pIC50 for the following entry. Cn1cc(-c2ccc(=O)n(Cc3cccc(-c4ncc(O[C@H]5CCC[C@H]5N)cn4)c3)n2)cn1
Output: 6.00 to 8.00

Input: Tell me its pIC50 given Cc1nc(-c2cccc(CN3N=C(c4nccs4)CSC3=O)c2)no1 as the entry.
Output: 5.00 to 6.00

====

Record: compiled pIC50 on Hepatocyte growth factor receptor (Homo sapiens, UniProt P08581) from multiple reports.
pIC50: −log10 of the molar value.

Known results for compounds:
COc1cccc(C(=O)c2c[nH]c3ncc(-c4cccc(/C=C/C(=O)O)c4)cc23)c1
≥ 5.00
CN1CCN(c2ccc(-c3cnc4c(c3)N(Cc3cc(F)ccc3F)CCN4)cn2)CC1
5.00 to 6.00

Input: Read off the recorded pIC50 for CN1CCN(C(=O)c2ccc(-c3cnc4c(c3)N(Cc3cc(F)c(F)cc3F)C(=O)CN4)cc2)CC1
Output: 4.00 to 5.00

Input: Return pIC50 for the following compound: O=C(Nc1cn2nc(C(F)(F)c3nnc4ccc(-c5ccncc5)cn34)ccc2n1)C1CC1
Output: 7.00 to 7.22

Input: Identify the reported pIC50 for the following entry. Cn1cc2cc(C(F)(F)c3nnc4ccc(-c5ccc(C(=O)NC6CC6)c(F)c5)nn34)c(F)cc2n1
Output: 7.36

Input: Identify measured pIC50 corresponding to CS(=O)(=O)c1cccc(-c2cnc3nnc(Cc4ccc5ncccc5c4)n3c2)c1
Output: < 5.00

Input: Provide pIC50 value for the following compound: Brc1n[nH]c2cc(-c3n[nH]c4c3Cc3sc(-c5ccc(CN6CCOCC6)cc5)cc3-4)ccc12
Output: < 6.00

Input: Recall and state the measured pIC50 for CCOc1ccn(-c2ccc(F)cc2)c(=O)c1C(=O)Nc1ccc(Oc2ncnc3cc(OC)c4c(c23)OCCO4)c(F)c1 .
Output: ≥ 7.30

====

Field: IC50. System: Hepatocyte growth factor receptor (Homo sapiens). Provenance: assorted publications.

CCOc1ccn(-c2ccc(F)cc2)c(=O)c1C(=O)Nc1ccc(Oc2ccnc3cc(OC4CCOCC4)c4c(c23)OCCO4)c(F)c1
≤ 50 nM
Cn1ncc2ccc(-c3n[nH]c4c3Cc3sc(-c5cncc(C(=O)N6CCOCC6)c5)cc3-4)cc21
> 1000 nM
CC(=O)N1CCN(C(=O)c2cccc(-c3cnc(N)c(-c4nc5ccccc5s4)c3)c2)CC1
1000 to 20000 nM
CCOC(=O)COc1ccc(-c2cnc(N)c(-c3nc4ccccc4s3)c2)cc1
1000 to 20000 nM
Cn1cc(C(=O)Nc2ccc(Oc3ccnc4cc(OC5CCOC5)c5c(c34)OCCO5)c(F)c2)c(=O)n(-c2ccc(F)cc2)c1=O (stereo not shown)
≤ 50 nM
Cn1cc(C(=O)Nc2ccc(Oc3ccnc4cc(OCCCN5CCOCC5)c5c(c34)OCCO5)cc2Cl)c(=O)n(-c2ccc(F)cc2)c1=O
50 to 500 nM

# next compound below
Input: Dear colleague, please send me the reported IC50 for Nc1ncc(-c2cccnc2)cc1-c1cc2c(Cl)ccc(F)c2cn1 when you can.
Output: 1000 to 20000 nM

====

System: Hepatocyte growth factor receptor (Homo sapiens) | Read-out: pIC50 | Origin: multiple publications
pIC50: −log10 of the molar value.

Use these answered entries as a reference point.
Cc1ccc2nnc(Sc3ccc4nccc(Sc5nncn5C)c4c3)n2n1
< 5.00
CN(C)C(=O)c1cccc(Nc2nccc(-c3ccc(Br)s3)n2)c1
5.30 to 6.00
CC(c1c(Cl)ccc(F)c1Cl)c1c[nH]c2ncc(-c3cnn(C4CCNCC4)c3)cc12 (stereo not drawn)
≥ 7.00
O=C(Nc1cn2nc(Sc3nnc4ccc(-c5cccc(CCCO)c5)cn34)ccc2n1)C1CC1
> 7.52
CCOC(=O)Nc1cccc(Cn2nc(-c3ccc(CNC(=O)CNC(C)=O)cc3)ccc2=O)c1
6.00 to 8.00

Input: Print Hepatocyte growth factor receptor (Homo sapiens) pIC50 for Cn1ncc2ccc(-c3n[nH]c4c3Cc3sc(-c5ccc(CN6CCC(F)(F)C6)cc5)cc3-4)cc21 .
Output: < 6.00

Input: Give pIC50; test system Hepatocyte growth factor receptor (Homo sapiens); molecule CC(O)c1cccc(Nc2nccc(-c3ccc(-c4cccnc4)s3)n2)c1 (stereo not drawn)
Output: 5.30 to 6.00

Input: Give pIC50 for Cn1cc(-c2cnc3cc(F)c(Cc4nnc5cccnn45)cc3c2)cn1 tested on Hepatocyte growth factor receptor (Homo sapiens).
Output: > 7.00

Input: Report its pIC50 with Hepatocyte growth factor receptor (Homo sapiens) as the test system: Cn1cc(-c2cnc3ccc(Cc4nnc5sc(C(N)Cc6cncn6C)nn45)cc3c2)cn1 (stereo not drawn)
Output: 6.00 to 7.00

Input: Under Hepatocyte growth factor receptor (Homo sapiens): report pIC50 of CCOC(=O)Nc1cccc(Cn2nc(-c3ccc(C(=O)NCCCN4CCCC4=O)cc3)ccc2=O)c1 .
Output: 6.00 to 8.00

Input: State recorded pIC50 with Hepatocyte growth factor receptor (Homo sapiens), entry CO[C@@H](C)[C@H](N)C(=O)NCCOc1cnc(-c2cccc(Cn3nc(-c4cnn(C)c4)ccc3=O)c2)nc1 , no comment.
Output: 6.00 to 8.00
